experiment: Dissolution test, paddle method (Example 15); assay type: physicochemical; conditions: paddle 75 rpm, 37° C., pH 6.8, 1.5% Tween 80; 12 hours; after microparticulation (Jet mill or ball mill, no surfactant)
As shown below, each of these compounds has a reported Dissolution rate of 12 hours after microparticulation value.
Form entry: value (%) — number only.

Some compounds with recorded Dissolution rate of 12 hours after microparticulation:
>>> observed_measurement("Cc1cc2c(c3ccccc13)C(=O)C(=O)C1=C2OC(C)C1(C)C (stereo not shown)")
51.3
>>> observed_measurement("CC1OC2=C(C(=O)C(=O)c3c2ccc2c3CCCC2)C1(C)C (stereo not shown)")
41.05
>>> observed_measurement("CC1(C)CCC2=C(O1)c1ccccc1C(=O)C2=O")
95.52

Now consider a different compound.
Returns the measured Dissolution rate of 12 hours after microparticulation for the input compound. Input: CC1CC2=C(O1)c1ccccc1C(=O)C2=O (stereo not shown)
86.12

Data origin: patent US20100209513A1
